# System: luciferase light signal from pIB102EL (yopE-luxAB, wild-type)
# TEST PROTOCOL: microbe, parasite or virus in culture
# Assay type: cell-based, Yersinia pseudotuberculosis
# CONDITION LABEL: 10 μM; strain pIB102EL; Table 2C
Each entry gets not satisfied if its Inhibition (%) of the luciferase light signal stays under 9%, and satisfied if its Inhibition (%) of the luciferase light signal is 9% or above.

In [3]: df
Out[3]:
                                   compound  qualitative_label
0  Nc1ccc(C(=O)N/N=C/c2c(O)ccc3ccccc23)cc1 [Compound 44]          satisfied
1  O=C(N/N=C/c1ccc(O)c(O)c1O)c1ccccc1 [Compound 36]          satisfied
2  Nc1ccc(C(=O)N/N=C/c2cc(I)cc(I)c2O)cc1 [Compound 40]          satisfied
3  CC(=NNC(=O)c1cccnc1)c1cc(Br)cc(Br)c1O [Compound 39]      not satisfied
4  O=C(N/N=C/c1cc(I)cc(I)c1O)c1ccc([N+](=O)[O-])cc1 [Compound 41]          satisfied

Inquiry: Reported Inhibition (%) of the luciferase light signal at or above 9%? O=C(N/N=C/c1cc(Cl)cc(Cl)c1O)c1ccccc1 [Compound 35]
Reply text: not satisfied

Inquiry: Reported Inhibition (%) of the luciferase light signal at or above 9%? O=C(N/N=C/c1ccc(O)cc1O)c1ccc([N+](=O)[O-])cc1 [Compound 38]
Reply text: satisfied

Inquiry: Reported Inhibition (%) of the luciferase light signal at or above 9%? CCOc1cccc(/C=N/NC(=O)c2ccc(Cl)cc2)c1O [Compound 43]
Reply text: not satisfied
